Reference source: ChEMBL document CHEMBL1145289

Cholinesterase (Homo sapiens): reported pIC50 for various compounds.
Sequence (P06276 whole entry): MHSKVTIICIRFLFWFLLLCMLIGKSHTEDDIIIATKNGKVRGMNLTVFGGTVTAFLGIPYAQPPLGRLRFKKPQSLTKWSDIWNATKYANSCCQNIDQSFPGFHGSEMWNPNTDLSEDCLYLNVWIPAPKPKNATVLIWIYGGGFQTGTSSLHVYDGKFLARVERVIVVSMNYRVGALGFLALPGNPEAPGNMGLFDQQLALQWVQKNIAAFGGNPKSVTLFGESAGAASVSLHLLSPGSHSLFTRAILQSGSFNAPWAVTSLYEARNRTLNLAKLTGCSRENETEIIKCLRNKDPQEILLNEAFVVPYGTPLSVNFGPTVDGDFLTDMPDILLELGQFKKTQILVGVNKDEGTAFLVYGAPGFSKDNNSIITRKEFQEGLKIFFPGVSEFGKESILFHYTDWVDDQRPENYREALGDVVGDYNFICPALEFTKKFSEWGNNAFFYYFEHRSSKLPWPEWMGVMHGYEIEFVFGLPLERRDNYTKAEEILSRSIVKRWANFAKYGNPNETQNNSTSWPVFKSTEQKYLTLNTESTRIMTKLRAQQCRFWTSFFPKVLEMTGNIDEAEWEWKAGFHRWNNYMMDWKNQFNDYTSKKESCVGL
pIC50: −log10 of the molar value.

{"columns": ["Chemical structure", "System name", "pIC50"],
 "data": [
  ["Nc1ccc2c(c1)c(-c1ccccc1)[n+](CCCNCCCNCCCNc1c3c(nc4ccccc14)CCCC3)c1cc(N)ccc21", "Cholinesterase (Homo sapiens)", 7.20],
  ["COc1ccccc1CN(C)CCCCCC(=O)N(C)CCCCCCCCN(C)C(=O)CCCCCN(C)Cc1ccccc1OC", "Cholinesterase (Homo sapiens)", 4.94],
  ["COc1ccccc1CN(C)CCCN(C)CCCNCCC[n+]1c(-c2ccccc2)c2cc(N)ccc2c2ccc(N)cc21", "Cholinesterase (Homo sapiens)", 5.66]
]}

###

Molecular target: UniProt:P22303
Sequence (P22303 whole entry): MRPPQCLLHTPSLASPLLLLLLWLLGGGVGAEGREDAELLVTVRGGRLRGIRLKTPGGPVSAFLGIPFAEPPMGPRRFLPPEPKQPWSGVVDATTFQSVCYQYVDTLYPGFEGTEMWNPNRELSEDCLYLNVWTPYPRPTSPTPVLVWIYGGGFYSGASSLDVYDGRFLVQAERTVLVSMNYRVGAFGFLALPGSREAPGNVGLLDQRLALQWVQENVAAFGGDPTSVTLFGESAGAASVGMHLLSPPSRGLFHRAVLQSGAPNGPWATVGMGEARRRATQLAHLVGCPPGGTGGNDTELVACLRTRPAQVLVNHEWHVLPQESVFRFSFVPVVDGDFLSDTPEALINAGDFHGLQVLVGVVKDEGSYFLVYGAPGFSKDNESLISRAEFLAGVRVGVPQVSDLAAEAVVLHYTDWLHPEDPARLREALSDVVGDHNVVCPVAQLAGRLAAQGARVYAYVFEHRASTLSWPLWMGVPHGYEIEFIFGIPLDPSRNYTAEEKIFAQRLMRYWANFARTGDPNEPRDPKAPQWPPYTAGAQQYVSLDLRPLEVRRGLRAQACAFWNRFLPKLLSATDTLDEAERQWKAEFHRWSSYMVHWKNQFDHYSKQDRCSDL

{"columns": ["Chemical structure", "Unit name", "IC50"],
 "data": [
  ["COc1ccccc1CN(C)CCCN(C)CCCNCCC[n+]1c(-c2ccccc2)c2cc(N)ccc2c2ccc(N)cc21", "nM", 952],
  ["Nc1ccc2c(c1)c(-c1ccccc1)[n+](CCCNCCCNCCCNc1c3c(nc4ccccc14)CCCC3)c1cc(N)ccc21", "nM", 1.55]
]}
